Target: T1, human GIP receptor (human) (UniProt P48546)
T1 sequence (looked up): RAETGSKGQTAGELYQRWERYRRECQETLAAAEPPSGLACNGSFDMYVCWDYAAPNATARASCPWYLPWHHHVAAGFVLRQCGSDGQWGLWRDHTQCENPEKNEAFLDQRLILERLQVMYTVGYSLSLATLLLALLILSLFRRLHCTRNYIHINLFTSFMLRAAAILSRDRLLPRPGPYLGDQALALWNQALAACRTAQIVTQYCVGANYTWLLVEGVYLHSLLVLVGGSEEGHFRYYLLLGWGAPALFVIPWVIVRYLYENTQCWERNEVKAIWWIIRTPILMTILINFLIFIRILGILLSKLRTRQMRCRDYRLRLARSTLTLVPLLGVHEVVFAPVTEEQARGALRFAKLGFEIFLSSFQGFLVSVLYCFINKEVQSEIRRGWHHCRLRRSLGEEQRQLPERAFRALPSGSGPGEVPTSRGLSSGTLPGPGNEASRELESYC
Assay: cell-based or functional assay
measured-quantity: cAMP EC50 (pM)
All answers are understood in pM, so give the number only.

Sample IP171 (Fc fusion) YSEGTFTSDVSSYMERQAISEFIAWLLAGAAAGGSGSTASSGSGSATGGGGAATHTCPPCPAPEF ; cAMP EC50 observed: 390

Sample IP311 (Fc fusion) YSEGTFISDYSIALAAAAIDDFVNWLLAGGGGGGGSGGGGSGGGGSGGGGSATHTCPPC ; cAMP EC50 observed: 74

Sample IP386 (Fc fusion) YSEGTFISDYSIAMDKIHQQDFVNWLLAQKGGGGGSGGGGSGGGGSGGGGSACPPC ; cAMP EC50 observed: 3.4
